Target: T1, LRP2 CR89 (Homo sapiens, UniProt P98164)
T1 construct: two CR pairs from LRP2 (CR89, CR3435); made in house; host or cells: E. coli BL21(DE3) CodonPlus-RIPL, pET30(+)a
T1 sequence (P98164 1022-1105 limits assumed): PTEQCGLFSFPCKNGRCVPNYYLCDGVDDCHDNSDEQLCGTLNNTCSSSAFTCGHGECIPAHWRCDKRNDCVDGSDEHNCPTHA
Assay: Solid phase binding assay
Conditions: solid-phase assay
assay_metric: binding to LRP2 CR89 (in words)

MegaRAP1 d3 K251E: MegaRAP1 d3 revertant K251E (protein) LDRLRRVSHQGYTTEAKFEEPRVIDLWDLAQSANLTDKELEAFREELKYFEAKIEAHNHYQKQLEIAHEELRHAESVGDGERVSRSREKHALLEGRTKELGYTVKKHLQDLSGRISRAR    failed to bind
MegaRAP1 d3 Y249H: MegaRAP1 d3 revertant Y249H (protein) LDRLRRVSHQGYTTEAKFEEPRVIDLWDLAQSANLTDKELEAFREELKHFKAKIEAHNHYQKQLEIAHEELRHAESVGDGERVSRSREKHALLEGRTKELGYTVKKHLQDLSGRISRAR    failed to bind
